Assay: Inhibitory activity against cytomegalovirus (CMV) protease was determined using quenched fluorescence assay
metric: pIC50
The value called pIC50 is obtained by taking minus log10 of the concentration in mol/L.

Take a look at these entries with their results.
smi | pIC50
Cc1csc2nc([C@H](C)NC(=O)/C=C/c3cc(Br)cs3)oc(=O)c12 | 5.95
Cc1csc2nc([C@H](C)NC(=O)/C=C/c3sccc3Br)oc(=O)c12 | 5.95
Cc1csc2nc([C@H](C)NC(=O)/C=C/c3ccc([N+](=O)[O-])cc3)oc(=O)c12 | 5.44
Cc1csc2nc([C@H](C)NC(=O)/C=C/c3c(F)cccc3F)oc(=O)c12 | 5.77
COc1cccc(OC)c1/C=C/C(=O)N[C@@H](C)c1nc2scc(C)c2c(=O)o1 | 4.68
Cc1csc2nc([C@H](C)NC(=O)/C=C/c3ccc([N+](=O)[O-])s3)oc(=O)c12 | 6.05

Q: Using the record for Cc1csc2nc([C@H](C)NC(=O)/C=C/c3ccccn3)oc(=O)c12 , report its pIC50.
A: 5.91

Q: Using the record for Cc1csc2nc([C@H](C)NC(=O)/C=C/c3ccccc3[N+](=O)[O-])oc(=O)c12 , report its pIC50.
A: 5.66

Q: Using the record for Cc1ccsc1/C=C/C(=O)N[C@@H](C)c1nc2scc(C)c2c(=O)o1 , report its pIC50.
A: 6.17

###

Experiment: Inhibitory activity against cytomegalovirus (CMV) protease was determined using quenched fluorescence assay
pIC50: −log10 of the molar value.
Assign class by pIC50: not lower than 6 means Y; lower than 6 means N.

Take a look at these entries with their results.
smi | label_class
Cc1csc2nc([C@H](C)NC(=O)/C=C/c3ccccc3Cl)oc(=O)c12 | Y
Cc1csc2nc([C@H](C)NC(=O)/C=C/c3ccccc3Br)oc(=O)c12 | Y

Q: Reported pIC50 reaches at least 6 for Cc1csc2nc([C@H](C)NC(=O)/C=C/c3ccsc3Br)oc(=O)c12 ?
A: Y

Q: Reported pIC50 reaches at least 6 for Cc1ccc(/C=C/C(=O)N[C@@H](C)c2nc3scc(C)c3c(=O)o2)s1 ?
A: Y

Q: Reported pIC50 reaches at least 6 for Cc1csc2nc([C@H](C)NC(=O)/C=C/c3c(Cl)cccc3Cl)oc(=O)c12 ?
A: N

###

Experiment: Inhibitory activity against Varicella Zoster Virus (VZV) protease was determined using quenched fluorescence assay
// reported IC50 for each item listed
Field: value (include unit after the number)

Take a look at these entries with their results.
smi | IC50
Cc1csc2nc([C@H](C)NC(=O)/C=C/c3ccc(O)cc3Cl)oc(=O)c12 | 15 nM
Cc1cc(/C=C/C(=O)N[C@@H](C)c2nc3scc(C)c3c(=O)o2)c(C)s1 | 7 nM
Cc1csc2nc([C@H](C)NC(=O)/C=C/c3ccc(Br)o3)oc(=O)c12 | 41 nM
Cc1csc2nc([C@H](C)NC(=O)/C=C/c3ccccc3Cl)oc(=O)c12 | 35 nM

Q: Using the record for Cc1csc2nc([C@H](C)NC(=O)/C=C/c3ccc(C=O)cc3)oc(=O)c12 , report its IC50.
A: 94 nM

Q: Using the record for Cc1csc2nc([C@H](C)NC(=O)/C=C/c3c(F)cccc3F)oc(=O)c12 , report its IC50.
A: 60 nM

Q: Using the record for Cc1csc2nc([C@H](C)NC(=O)/C=C/c3cccn3C)oc(=O)c12 , report its IC50.
A: 29 nM

###

// reported IC50 for each item listed
Test: Inhibitory activity against Varicella Zoster Virus (VZV) protease was determined using quenched fluorescence assay
Kindly answer with a numeric value in nM, unit omitted.

Q: Using the record for Cc1csc2nc([C@H](C)NC(=O)/C=C/c3sccc3Br)oc(=O)c12 , report its IC50.
A: 58

Q: Using the record for Cc1csc2nc([C@H](C)NC(=O)C=C(c3cccs3)c3cccs3)oc(=O)c12 , report its IC50.
A: 42

###

Experiment: Inhibitory activity against cytomegalovirus (CMV) protease was determined using quenched fluorescence assay
Labelling: IC50 reported below 0.5 µM becomes Fulfilled; at or above becomes Not fulfilled.

smi | label_class
Cc1csc2nc([C@H](C)NC(=O)/C=C/c3ccnc4ccccc34)oc(=O)c12 | Not fulfilled
Cc1csc2nc([C@H](C)NC(=O)C=C(c3cccs3)c3cccs3)oc(=O)c12 | Fulfilled
Cc1csc2nc([C@H](C)NC(=O)/C=C/c3ccc(N(C)C)cc3)oc(=O)c12 | Not fulfilled
Cc1csc2nc([C@H](C)NC(=O)C=C(c3ccccc3)c3ccccc3)oc(=O)c12 | Not fulfilled

Q: I'd appreciate it if you could check whether Cc1csc2nc([C@H](C)NC(=O)/C=C/c3ccc(C=O)cc3)oc(=O)c12 has IC50 smaller than 0.5 µM.
A: Not fulfilled

Q: I'd appreciate it if you could check whether Cc1csc2nc([C@H](C)NC(=O)/C=C/c3ccc(Br)s3)oc(=O)c12 has IC50 smaller than 0.5 µM.
A: Fulfilled

Q: I'd appreciate it if you could check whether Cc1csc2nc([C@H](C)NC(=O)/C=C(\c3ccccc3)c3cccs3)oc(=O)c12 has IC50 smaller than 0.5 µM.
A: Fulfilled

Q: I'd appreciate it if you could check whether Cc1cc(/C=C/C(=O)N[C@@H](C)c2nc3scc(C)c3c(=O)o2)c(C)s1 has IC50 smaller than 0.5 µM.
A: Fulfilled

###

Test: Inhibitory activity against cytomegalovirus (CMV) protease was determined using quenched fluorescence assay
metric: log10(IC50) (log10 of the value in nM)
Recall that a logarithmic scale is used here: each number is log10 of IC50 in nM.

Take a look at these entries with their results.
smi | log10(IC50)
COc1cc(/C=C/C(=O)N[C@@H](C)c2nc3scc(C)c3c(=O)o2)cc(OC)c1 | 3.93
Cc1csc2nc([C@H](C)NC(=O)/C=C/c3ccc(Br)o3)oc(=O)c12 | 2.26
Cc1csc2nc([C@H](C)NC(=O)/C=C/c3ccc(Cl)s3)oc(=O)c12 | 2.45
Cc1csc2nc([C@H](C)NC(=O)/C=C/c3c(F)cccc3Cl)oc(=O)c12 | 3.30

Q: Using the record for Cc1csc2nc([C@H](C)NC(=O)/C=C/c3cccn3C)oc(=O)c12 , report its log10(IC50).
A: 2.34

Q: Using the record for Cc1csc2nc([C@H](C)NC(=O)/C=C/c3ccccc3)oc(=O)c12 , report its log10(IC50).
A: 2.70

###

// reported IC50 for each item listed
Assay: Inhibitory activity against Varicella Zoster Virus (VZV) protease was determined using quenched fluorescence assay

smi | IC50
Cc1csc2nc([C@H](C)NC(=O)/C=C/c3ccc(Cl)s3)oc(=O)c12 | 17 nM
Cc1csc2nc([C@H](C)NC(=O)/C=C/c3cc(Br)cs3)oc(=O)c12 | 33 nM
Cc1csc2nc([C@H](C)NC(=O)/C=C(\c3ccccc3)c3cccs3)oc(=O)c12 | 16 nM
Cc1csc2nc([C@H](C)NC(=O)/C=C/c3ccc(N(C)C)cc3)oc(=O)c12 | 38 nM
Cc1csc2nc([C@H](C)NC(=O)/C=C/c3ccsc3)oc(=O)c12 | 89 nM
COc1cccc(OC)c1/C=C/C(=O)N[C@@H](C)c1nc2scc(C)c2c(=O)o1 | 180 nM
Cc1csc2nc([C@H](C)NC(=O)/C=C/c3c(F)cccc3Cl)oc(=O)c12 | 36 nM
CCOc1ccccc1/C=C/C(=O)N[C@@H](C)c1nc2scc(C)c2c(=O)o1 | 15 nM

Q: Using the record for Cc1ccc(/C=C/C(=O)N[C@@H](C)c2nc3scc(C)c3c(=O)o2)s1 , report its IC50.
A: 33 nM

Q: Using the record for Cc1csc2nc([C@H](C)NC(=O)/C=C/c3c(Cl)cccc3Cl)oc(=O)c12 , report its IC50.
A: 10 nM

Q: Using the record for Cc1ccsc1/C=C/C(=O)N[C@@H](C)c1nc2scc(C)c2c(=O)o1 , report its IC50.
A: 290 nM

Q: Using the record for Cc1csc2nc([C@H](C)NC(=O)C=C(c3ccccc3)c3ccccc3)oc(=O)c12 , report its IC50.
A: 37 nM

Q: Using the record for Cc1csc2nc([C@H](C)NC(=O)/C=C/c3ccc([N+](=O)[O-])cc3)oc(=O)c12 , report its IC50.
A: 60 nM

Q: Using the record for Cc1csc2nc([C@H](C)NC(=O)/C=C/c3ccc(Br)s3)oc(=O)c12 , report its IC50.
A: 8 nM

Q: Using the record for Cc1csc2nc([C@H](C)NC(=O)/C=C/c3ccccn3)oc(=O)c12 , report its IC50.
A: 170 nM

###

Assay: Inhibitory activity against Varicella Zoster Virus (VZV) protease was determined using quenched fluorescence assay
// reported pIC50 for each item listed
The value called pIC50 is obtained by taking minus log10 of the concentration in mol/L.

Take a look at these entries with their results.
smi | pIC50
Cc1csc2nc([C@H](C)NC(=O)/C=C/c3ccccc3)oc(=O)c12 | 7.42
Cc1ccccc1/C=C/C(=O)N[C@@H](C)c1nc2scc(C)c2c(=O)o1 | 7.44

Pending compound:
Q: Using the record for Cc1csc2nc([C@H](C)NC(=O)/C=C/c3ccnc4ccccc34)oc(=O)c12 , report its pIC50.
A: 7.72

Reference source for all entries: BindingDB's records for doi:10.1016/s0960-894x(99)00004-9
